Recorded C175 for the following compounds
# Organism: Cavia porcellus
# assay: Concentration needed to elicit a 75% increase beyond control in coronary flow in ''Langendorff'', guinea pig heart (in vitro)
# Assay type: functional

Example entries begin here.
COc1ccc(C#Cc2ccccc2)c(CC(C)NCCc2ccc([N+](=O)[O-])cc2)c1 (stereo not drawn)
>3 µM
COc1cccc(CC(C)NCCc2ccc(OC)c(OC)c2)c1 (stereo not drawn)
>10 µM

Req: Name the recorded C175 of the compound listed here: CCCCCCN(C)C(C)Cc1cc(OC)ccc1C#Cc1ccccc1 (stereo not drawn)
Resp: >3 µM

----------
# Organism: Cavia porcellus
# assay: Concentration needed to achieve a 75% increase in coronary blood flow in 'Langendorff', guinea pig heart (in vitro negative inotropic activity)
# Assay type: functional
quantity: Contractile force, % of control (%)
Write the number in % without appending the unit.

Example entries begin here.
COc1ccc(C#Cc2ccc(C#N)cc2)c(CC(C)N(C)CCc2ccc(OC)c(OC)c2)c1 (centres undefined)
75
COc1ccc(C#Cc2ccc(F)cc2)c(CC(C)N(C)CCc2ccc(OC)c(OC)c2)c1 (centres undefined)
78
COc1ccc(C#CCCc2ccccc2)c(CCCN(C)CCc2ccc(OC)c(OC)c2)c1
100
COc1ccc(C#Cc2ccccc2)c(CCC(C)N(C)CCc2ccc(OC)c(OC)c2)c1 (centres undefined)
135
COc1ccc(C#Cc2ccccc2)c(CC(C)N(C)CCc2cccc3ccccc23)c1 (centres undefined)
61
CCCCC#Cc1ccc(OC)cc1CCCN(C)CCc1ccc(OC)c(OC)c1
100

Req: Name the recorded Contractile force, % of control of the compound listed here: COc1cc(CCN(C)C(C)Cc2cc(OC)ccc2C#Cc2ccccc2)cc(OC)c1 (centres undefined)
Resp: 100

Req: Name the recorded Contractile force, % of control of the compound listed here: COc1ccc(C#Cc2ccc([S+](C)[O-])cc2)c(CC(C)N(C)CCc2ccc(OC)c(OC)c2)c1 (centres undefined)
Resp: 10
